- MEASUREMENT_CONTEXT: 318.15 K; 100 kPa; Liquid; Frequency=3 MHz; Single path-length method
Overview of reported speed of sound across a group of compounds:
READOUT_KIND: speed of sound (m/s)

>>> endpoint_value("O=S(=O)([N-]S(=O)(=O)C(F)(F)F)C(F)(F)F.On1cc[n+](O)c1 [1,3-dihydroxyimidazolium bis(trifluoromethylsulfonyl)imide]")
1152.3
>>> endpoint_value("CC[S+](CC)CC.O=S(=O)([N-]S(=O)(=O)C(F)(F)F)C(F)(F)F [triethylsulfonium bis((trifluoromethyl)sulfonyl)imide]")
1203.1
>>> endpoint_value("CCCO [propan-1-ol]")
1138.7
>>> endpoint_value("CCCC[N+]1(C)CCCC1.O=S(=O)([N-]S(=O)(=O)C(F)(F)F)C(F)(F)F")
1225.3
>>> endpoint_value("C=CCn1cc[n+](C)c1.O=S(=O)([N-]S(=O)(=O)C(F)(F)F)C(F)(F)F")
1196

----------
- MEASUREMENT_CONTEXT: 313.15 K; 100 kPa; Liquid; Vibrating tube method
Reported mass density values for the following molecules.
READOUT_KIND: mass density (kg/m3)

>>> endpoint_value("CC[S+](CC)CC.O=S(=O)([N-]S(=O)(=O)C(F)(F)F)C(F)(F)F [triethylsulfonium bis((trifluoromethyl)sulfonyl)imide]")
1445.52
>>> endpoint_value("C=CCn1cc[n+](C)c1.O=S(=O)([N-]S(=O)(=O)C(F)(F)F)C(F)(F)F")
1484.45
>>> endpoint_value("O=S(=O)([N-]S(=O)(=O)C(F)(F)F)C(F)(F)F.On1cc[n+](O)c1 [1,3-dihydroxyimidazolium bis(trifluoromethylsulfonyl)imide]")
1722.79
>>> endpoint_value("CCCC[N+]1(C)CCCC1.O=S(=O)([N-]S(=O)(=O)C(F)(F)F)C(F)(F)F")
1381.05
>>> endpoint_value("CCCO [propan-1-ol]")
787.43

----------
- MEASUREMENT_CONTEXT: 278.15 K; 100 kPa; Liquid; Frequency=3 MHz; Single path-length method
Here, each record is paired with measured speed of sound data.
READOUT_KIND: speed of sound (m/s)

>>> endpoint_value("CC[S+](CC)CC.O=S(=O)([N-]S(=O)(=O)C(F)(F)F)C(F)(F)F [triethylsulfonium bis((trifluoromethyl)sulfonyl)imide]")
1284.8
>>> endpoint_value("CCCO")
1276
>>> endpoint_value("C=CCn1cc[n+](C)c1.O=S(=O)([N-]S(=O)(=O)C(F)(F)F)C(F)(F)F")
1286.6
>>> endpoint_value("CCCC[N+]1(C)CCCC1.O=S(=O)([N-]S(=O)(=O)C(F)(F)F)C(F)(F)F")
1316.3

----------
- MEASUREMENT_CONTEXT: 328.15 K; 100 kPa; Liquid; Capillary tube (Ostwald / Ubbelohde) method
READOUT_KIND: viscosity (mPa·s)

>>> endpoint_value("CCCO")
0.985
>>> endpoint_value("CC[S+](CC)CC.O=S(=O)([N-]S(=O)(=O)C(F)(F)F)C(F)(F)F [triethylsulfonium bis((trifluoromethyl)sulfonyl)imide]")
12.5
>>> endpoint_value("C=CCn1cc[n+](C)c1.O=S(=O)([N-]S(=O)(=O)C(F)(F)F)C(F)(F)F")
13.23
>>> endpoint_value("O=S(=O)([N-]S(=O)(=O)C(F)(F)F)C(F)(F)F.On1cc[n+](O)c1 [1,3-dihydroxyimidazolium bis(trifluoromethylsulfonyl)imide]")
39.57
>>> endpoint_value("CCCC[N+]1(C)CCCC1.O=S(=O)([N-]S(=O)(=O)C(F)(F)F)C(F)(F)F")
24.76

----------
- MEASUREMENT_CONTEXT: 343.15 K; 100 kPa; Liquid; Frequency=3 MHz; Single path-length method
READOUT_KIND: speed of sound (m/s)

>>> endpoint_value("CCCC[N+]1(C)CCCC1.O=S(=O)([N-]S(=O)(=O)C(F)(F)F)C(F)(F)F")
1173
>>> endpoint_value("CCCO")
1054.5
>>> endpoint_value("O=S(=O)([N-]S(=O)(=O)C(F)(F)F)C(F)(F)F.On1cc[n+](O)c1 [1,3-dihydroxyimidazolium bis(trifluoromethylsulfonyl)imide]")
1100.2
>>> endpoint_value("C=CCn1cc[n+](C)c1.O=S(=O)([N-]S(=O)(=O)C(F)(F)F)C(F)(F)F")
1143.5
>>> endpoint_value("CC[S+](CC)CC.O=S(=O)([N-]S(=O)(=O)C(F)(F)F)C(F)(F)F [triethylsulfonium bis((trifluoromethyl)sulfonyl)imide]")
1157.6

----------
- MEASUREMENT_CONTEXT: 288.15 K; 100 kPa; Liquid; Vibrating tube method
READOUT_KIND: mass density (kg/m3)

>>> endpoint_value("CC[S+](CC)CC.O=S(=O)([N-]S(=O)(=O)C(F)(F)F)C(F)(F)F [triethylsulfonium bis((trifluoromethyl)sulfonyl)imide]")
1469.71
>>> endpoint_value("C=CCn1cc[n+](C)c1.O=S(=O)([N-]S(=O)(=O)C(F)(F)F)C(F)(F)F")
1509.81
>>> endpoint_value("CCCO [propan-1-ol]")
807.63
>>> endpoint_value("CCCC[N+]1(C)CCCC1.O=S(=O)([N-]S(=O)(=O)C(F)(F)F)C(F)(F)F")
1403.28

----------
- MEASUREMENT_CONTEXT: 323.15 K; 100 kPa; Liquid; Frequency=3 MHz; Single path-length method
READOUT_KIND: speed of sound (m/s)

>>> endpoint_value("O=S(=O)([N-]S(=O)(=O)C(F)(F)F)C(F)(F)F.On1cc[n+](O)c1 [1,3-dihydroxyimidazolium bis(trifluoromethylsulfonyl)imide]")
1141.6
>>> endpoint_value("CCCO")
1121.9
>>> endpoint_value("CC[S+](CC)CC.O=S(=O)([N-]S(=O)(=O)C(F)(F)F)C(F)(F)F [triethylsulfonium bis((trifluoromethyl)sulfonyl)imide]")
1193.7
>>> endpoint_value("CCCC[N+]1(C)CCCC1.O=S(=O)([N-]S(=O)(=O)C(F)(F)F)C(F)(F)F")
1214.6
>>> endpoint_value("C=CCn1cc[n+](C)c1.O=S(=O)([N-]S(=O)(=O)C(F)(F)F)C(F)(F)F")
1185.2

----------
- MEASUREMENT_CONTEXT: 298.15 K; 100 kPa; Liquid; Vibrating tube method
READOUT_KIND: mass density (kg/m3)

>>> endpoint_value("CC[S+](CC)CC.O=S(=O)([N-]S(=O)(=O)C(F)(F)F)C(F)(F)F [triethylsulfonium bis((trifluoromethyl)sulfonyl)imide]")
1459.98
>>> endpoint_value("O=S(=O)([N-]S(=O)(=O)C(F)(F)F)C(F)(F)F.On1cc[n+](O)c1 [1,3-dihydroxyimidazolium bis(trifluoromethylsulfonyl)imide]")
1740.44
>>> endpoint_value("CCCO [propan-1-ol]")
799.65
>>> endpoint_value("CCCC[N+]1(C)CCCC1.O=S(=O)([N-]S(=O)(=O)C(F)(F)F)C(F)(F)F")
1394.32

----------
Recorded mass density values for a group of compounds are listed next.
- MEASUREMENT_CONTEXT: 283.15 K; 100 kPa; Liquid; Vibrating tube method
READOUT_KIND: mass density (kg/m3)

>>> endpoint_value("CC[S+](CC)CC.O=S(=O)([N-]S(=O)(=O)C(F)(F)F)C(F)(F)F [triethylsulfonium bis((trifluoromethyl)sulfonyl)imide]")
1474.62
>>> endpoint_value("C=CCn1cc[n+](C)c1.O=S(=O)([N-]S(=O)(=O)C(F)(F)F)C(F)(F)F")
1514.97
>>> endpoint_value("CCCC[N+]1(C)CCCC1.O=S(=O)([N-]S(=O)(=O)C(F)(F)F)C(F)(F)F")
1407.79
>>> endpoint_value("CCCO")
811.6

----------
Here the recorded mass density is given for each entry.
- MEASUREMENT_CONTEXT: 333.15 K; 100 kPa; Liquid; Vibrating tube method
± gives the expanded uncertainty stated by the source.
READOUT_KIND: mass density

>>> endpoint_value("CC[S+](CC)CC.O=S(=O)([N-]S(=O)(=O)C(F)(F)F)C(F)(F)F [triethylsulfonium bis((trifluoromethyl)sulfonyl)imide]")
"1426.57 ± 2.9 kg/m3"
>>> endpoint_value("CCCO [propan-1-ol]")
"770.44 ± 1.6 kg/m3"
>>> endpoint_value("O=S(=O)([N-]S(=O)(=O)C(F)(F)F)C(F)(F)F.On1cc[n+](O)c1 [1,3-dihydroxyimidazolium bis(trifluoromethylsulfonyl)imide]")
"1699.71 ± 4.2 kg/m3"
>>> endpoint_value("CCCC[N+]1(C)CCCC1.O=S(=O)([N-]S(=O)(=O)C(F)(F)F)C(F)(F)F")
"1363.6 ± 3.1 kg/m3"
>>> endpoint_value("C=CCn1cc[n+](C)c1.O=S(=O)([N-]S(=O)(=O)C(F)(F)F)C(F)(F)F")
"1464.56 ± 3.1 kg/m3"
